Test system: TK-10 renal
measurement_protocol: NCI tumour cell line growth inhibition, 48 h
What TGI was measured for each of the following?

Below are worked cases with known answers.
compound="C[C@]12CCC(=O)C=C1CC[C@@H]1C2CC[C@]2(C)Nc3c(cnn3-c3ccccc3)CC12 (some centres undefined)" system="TK-10 renal" measurement_label=TGI recorded_measurement="> 100 µM"
compound=COc1cc2c(cc1OCCCCN1C(=O)c3cccc4cccc(c34)C1=O)N=C[C@@H]1CCCN1C2=O system="TK-10 renal" measurement_label=TGI recorded_measurement="6.91 µM"
compound=Cn1c2ccc3cc2c(=S)c2cc(ccc21)OCCOCCOCCOCCOCCO3 system="TK-10 renal" measurement_label=TGI recorded_measurement="> 10 µM"
compound="CCOC(=O)c1c(N)sc2c1C(C)(C(=O)OCC)CC2 (centres undefined)" system="TK-10 renal" measurement_label=TGI recorded_measurement="> 100 µM"
compound=CC(=O)OC[C@]12CC[C@@H](C(=O)CBr)[C@@H]1[C@H]1CC[C@@H]3[C@@]4(C)CCCNC(C)(C)[C@@H]4CC[C@@]3(C)[C@]1(C)CC2 system="TK-10 renal" measurement_label=TGI recorded_measurement="11.6 µM"
compound=CCCCc1ccc(Nc2nc(SC)c3[nH]cnc3n2)cc1 system="TK-10 renal" measurement_label=TGI recorded_measurement="> 100 µM"
compound=COC(=O)c1ccccc1OCc1cc(=O)oc2ccc(C)cc12 system="TK-10 renal" measurement_label=TGI recorded_measurement="> 100 µM"
compound="COC(=O)CC1NC(=O)[C@@H]1C(C)O (some centres undefined)" system="TK-10 renal" measurement_label=TGI recorded_measurement="> 100 µM"

Query: Provide value of TGI for this record tested with TK-10 renal: COc1cccc([C@H]2C/C(=N\NC(=O)C(=O)N[C@@H](C)c3ccccc3)c3ccccc3N2)c1
Reply: > 100 µM

====

Tested on: HCT-116 colon
measurement_protocol: NCI tumour cell line growth inhibition, 48 h
measurement_label: TGI

Below are 8 molecules. Give each one its TGI.
1. CCN(CC(=O)O)C(=O)c1cccnc1
2. CC12CC3OC(=O)C1COC14OC5(C2C1=O)C(O)(CCC1C4CC(O)C2(O)CC=CC(=O)C12C)C(=O)OC35C (stereo unspecified)
3. C[C@]12CCC(=O)C=C1CC[C@@H]1C2CC[C@]2(C)Nc3c(cnn3-c3ccccc3)CC12 (stereo partly specified)
4. Cc1ccc(C(CC(=O)c2ccccc2)C2C(=O)NC(=O)NC2=O)cc1 (stereo unspecified)
5. C/C=C\C(CC(=O)NCCC1CN(S(=O)(=O)c2ccc(C)cc2)c2ccccc21)CC(=O)OC (stereo unspecified)
6. CCOP(=O)(OCC)C(Nc1ccc(Br)cc1)c1cccc([N+](=O)[O-])c1 (stereo unspecified)
7. N#C/C(c1nc2ccccc2[nH]1)=c1\s/c(=C/c2ccc(Cl)cc2)c(=O)n1-c1ccccc1
8. CN[C@H](C#Cc1c(F)ccc2c1/C(=C/c1[nH]ccc1OC)C(=O)N2)CO

Reply:
> 100 µM
> 100 µM
> 100 µM
> 100 µM
> 100 µM
25.6 µM
> 100 µM
5.21 µM

Below are 7 molecules. Give each one its TGI.
1. Cc1cc(NCCN(C(C)C)C(C)C)nc(/N=C(\N)Nc2ccc(Cl)c(C(F)(F)F)c2)n1
2. Clc1cc(Cl)cc(C=NC23CC4CC(CC(C4)C2)C3)c1
3. C[C@]12CCc3sc(NCCc4ccccc4)nc3C1=CC[C@@H]1[C@@H]2CC[C@]2(C)C(=O)CC[C@@H]12
4. COC1OC(CBr)C(OC(=O)c2ccccc2)C(O)C1Br (stereo unspecified)
5. Cc1cn(C2CC(O)C(COC(=O)NCCC(F)(F)C(F)(F)C(F)(F)C(F)(F)F)O2)c(=O)[nH]c1=O (stereo unspecified)
6. O=c1oc(Cl)c(Cl)c2ccccc12
7. COc1cccc(-n2nc(C)c3c(N/N=C(\C)c4ccncc4)ncnc32)c1

Reply:
1. 2.38 µM
2. > 10 µM
3. 12.3 µM
4. > 100 µM
5. > 100 µM
6. 71.8 µM
7. > 25 µM

Below are 2 molecules. Give each one its TGI.
1. O=c1c2nc3ccccc3c(=O)n2ncn1-c1ccccc1Cl
2. O=C(CCCN1CCC2(CC1)CC(=O)N(N1CCCCCC1)C2=O)c1ccccc1

Reply:
1: > 100 µM; 2: > 100 µM
